# Tested on: male Wistar rats
# Experimental details: Sleep-wakefulness monitoring (EEG/EMG, SCORE-2004) in rats after oral treatment at CT-18
# Format: in vivo, rat
# Measurement setup: 3 mg/kg oral at CT-18; sleep bout length defined in minutes
For each entry below, report its LONGEST UNINTERRUPTED SLEEP BOUT 3 mg/kg value.
Form: value (number only, do not type unit).

Reported LONGEST UNINTERRUPTED SLEEP BOUT 3 mg/kg, compound O=C(O)C1(CN2CCN(c3noc4ccccc34)CC2)CC1 : ____
3.0

Consider next the compound Cc1ccc2onc(N3CCN(CC(C)(C)C(=O)O)CC3)c2c1 in the same way.
4.8

Consider next the compound Cc1ccc2c(N3CCN(CC(C)(C)C(=O)O)CC3)noc2c1 in the same way.
13.6

Consider next the compound CC(C)(CN1CCN(c2noc3ccccc23)CC1)C(=O)O in the same way.
9.3

From: patent US7494998B2
